- procedure_text: Biodistribution studies incl. blocking experiments
- Type: in vivo
- condition_parameters: healthy BALB/c mice, 10 min p.i.
quantity_kind: Biodistribution Intestine
Put your answer as a value accompanied by its unit after it.

Consider the reported Biodistribution Intestine for these compounds:
O=C(CCP(=O)([O-])CN1CCN(CP(=O)([O-])CCC(=O)NCc2cn(CCOCCOCCO[C@@H]3O[C@H](CO)[C@H](O)[C@H](O)[C@H]3O)nn2)CCN(CP(=O)([O-])CCC(=O)NCc2cn(CCOCCOCCO[C@@H]3O[C@H](CO)[C@H](O)[C@H](O)[C@H]3O)nn2)CC1)NCc1cn(CCOCCOCCO[C@@H]2O[C@H](CO)[C@H](O)[C@H](O)[C@H]2O)nn1.[68Ga+3] [[^68Ga]Ga-TRAP-Galactan] :: 1.24 ± 0.05 % ID/g
O=C(O)CN1CCN(CC(=O)O)CCN([C@H](CCC(=O)NCCCC(=O)NC(COCc2cn(CCOCCOCCO[C@@H]3O[C@H](CO)[C@H](O)[C@H](O)[C@H]3O)nn2)(COCc2cn(CCOCCOCCO[C@@H]3O[C@H](CO)[C@H](O)[C@H](O)[C@H]3O)nn2)COCc2cn(CCOCCOCCO[C@@H]3O[C@H](CO)[C@H](O)[C@H](O)[C@H]3O)nn2)C(=O)O)CC1 [[^68Ga]Ga-NODAGA-TriGalactan, metal not drawn] :: 1.13 ± 0.07 % ID/g
O=C(CCP(=O)([O-])CN1CCN(CP(=O)([O-])CCC(=O)NCc2cn(CCOCCOCCO[C@@H]3O[C@H](CO)[C@@H](O)[C@H](O)[C@H]3O)nn2)CCN(CP(=O)([O-])CCC(=O)NCc2cn(CCOCCOCCO[C@@H]3O[C@H](CO)[C@@H](O)[C@H](O)[C@H]3O)nn2)CC1)NCc1cn(CCOCCOCCO[C@@H]2O[C@H](CO)[C@@H](O)[C@H](O)[C@H]2O)nn1.[68Ga+3] [[^68Ga]Ga-TRAP-Gluco, reference compound] :: 1.10 ± 0.12 % ID/g

// below: Biodistribution Intestine requested for another compound
// O=C(CCP(=O)([O-])CN1CCN(CP(=O)([O-])CCC(=O)NCc2cn([C@@H]3O[C@H](CO)[C@H](O)[C@H](O)[C@H]3O)nn2)CCN(CP(=O)([O-])CCC(=O)NCc2cn([C@@H]3O[C@H](CO)[C@H](O)[C@H](O)[C@H]3O)nn2)CC1)NCc1cn([C@@H]2O[C@H](CO)[C@H](O)[C@H](O)[C@H]2O)nn1.[68Ga+3] [[^68Ga]Ga-Galacto-TRAP] : Biodistribution Intestine value = 1.80 ± 0.16 % ID/g

* * *

- procedure_text: Biodistribution studies incl. blocking experiments
- Format: in vivo
- condition_parameters: healthy BALB/c mice, 60 min p.i.
quantity_kind: Biodistribution Femur (% ID/g)
Your answer is read as % ID/g, so omit the unit and give the number.

O=C(CCP(=O)([O-])CN1CCN(CP(=O)([O-])CCC(=O)NCc2cn([C@@H]3O[C@H](CO)[C@H](O)[C@H](O)[C@H]3O)nn2)CCN(CP(=O)([O-])CCC(=O)NCc2cn([C@@H]3O[C@H](CO)[C@H](O)[C@H](O)[C@H]3O)nn2)CC1)NCc1cn([C@@H]2O[C@H](CO)[C@H](O)[C@H](O)[C@H]2O)nn1.[68Ga+3] [[^68Ga]Ga-Galacto-TRAP] :: 0.10
CC(=O)N[C@H]1[C@H](OCCOCCOCCn2cc(CNC(=O)CCP(=O)([O-])CN3CCN(CP(=O)([O-])CCC(=O)NCc4cn(CCOCCOCCO[C@@H]5O[C@H](CO)[C@H](O)[C@H](O)[C@H]5NC(C)=O)nn4)CCN(CP(=O)([O-])CCC(=O)NCc4cn(CCOCCOCCO[C@@H]5O[C@H](CO)[C@H](O)[C@H](O)[C@H]5NC(C)=O)nn4)CC3)nn2)O[C@H](CO)[C@H](O)[C@@H]1O.[68Ga+3] [[^68Ga]Ga-TRAP-GalNAc] :: 0.49
O=C(CCP(=O)([O-])CN1CCN(CP(=O)([O-])CCC(=O)NCc2cn(CCOCCOCCO[C@@H]3O[C@H](CO)[C@H](O)[C@H](O)[C@H]3O)nn2)CCN(CP(=O)([O-])CCC(=O)NCc2cn(CCOCCOCCO[C@@H]3O[C@H](CO)[C@H](O)[C@H](O)[C@H]3O)nn2)CC1)NCc1cn(CCOCCOCCO[C@@H]2O[C@H](CO)[C@H](O)[C@H](O)[C@H]2O)nn1.[68Ga+3] [[^68Ga]Ga-TRAP-Galactan] :: 0.13

// O=C(CCP(=O)([O-])CN1CCN(CP(=O)([O-])CCC(=O)NCc2cn(CCOCCOCCO[C@@H]3O[C@H](CO)[C@@H](O)[C@H](O)[C@H]3O)nn2)CCN(CP(=O)([O-])CCC(=O)NCc2cn(CCOCCOCCO[C@@H]3O[C@H](CO)[C@@H](O)[C@H](O)[C@H]3O)nn2)CC1)NCc1cn(CCOCCOCCO[C@@H]2O[C@H](CO)[C@@H](O)[C@H](O)[C@H]2O)nn1.[68Ga+3] [[^68Ga]Ga-TRAP-Gluco, reference compound] : Biodistribution Femur value = 0.08

* * *

- procedure_text: Biodistribution studies incl. blocking experiments
- Type: in vivo
- condition_parameters: healthy BALB/c mice, 60 min p.i.
quantity_kind: Biodistribution Kidneys (% ID/g)
Your answer is read as % ID/g, so omit the unit and give the number.

// O=C(CCP(=O)([O-])CN1CCN(CP(=O)([O-])CCC(=O)NCc2cn(CCOCCOCCO[C@@H]3O[C@H](CO)[C@@H](O)[C@H](O)[C@H]3O)nn2)CCN(CP(=O)([O-])CCC(=O)NCc2cn(CCOCCOCCO[C@@H]3O[C@H](CO)[C@@H](O)[C@H](O)[C@H]3O)nn2)CC1)NCc1cn(CCOCCOCCO[C@@H]2O[C@H](CO)[C@@H](O)[C@H](O)[C@H]2O)nn1.[68Ga+3] [[^68Ga]Ga-TRAP-Gluco, reference compound] : Biodistribution Kidneys value = 1.87

* * *

- procedure_text: Biodistribution studies incl. blocking experiments
- Assay type: in vivo
- condition_parameters: healthy BALB/c mice, 30 min p.i.
quantity_kind: Biodistribution Spleen (% ID/g)
Your answer is read as % ID/g, so omit the unit and give the number.

// O=C(O)CN1CCN(CC(=O)O)CCN([C@H](CCC(=O)NCCCC(=O)NC(COCc2cn(CCOCCOCCO[C@@H]3O[C@H](CO)[C@H](O)[C@H](O)[C@H]3O)nn2)(COCc2cn(CCOCCOCCO[C@@H]3O[C@H](CO)[C@H](O)[C@H](O)[C@H]3O)nn2)COCc2cn(CCOCCOCCO[C@@H]3O[C@H](CO)[C@H](O)[C@H](O)[C@H]3O)nn2)C(=O)O)CC1 [[^68Ga]Ga-NODAGA-TriGalactan, metal not drawn] : Biodistribution Spleen value = 0.27

* * *

- procedure_text: Biodistribution studies incl. blocking experiments
- Format: in vivo
- condition_parameters: healthy BALB/c mice, 30 min p.i.
quantity_kind: Biodistribution Stomach (% ID/g)
Your answer is read as % ID/g, so omit the unit and give the number.

// O=C(CCP(=O)([O-])CN1CCN(CP(=O)([O-])CCC(=O)NCc2cn(CCOCCOCCO[C@@H]3O[C@H](CO)[C@H](O)[C@H](O)[C@H]3O)nn2)CCN(CP(=O)([O-])CCC(=O)NCc2cn(CCOCCOCCO[C@@H]3O[C@H](CO)[C@H](O)[C@H](O)[C@H]3O)nn2)CC1)NCc1cn(CCOCCOCCO[C@@H]2O[C@H](CO)[C@H](O)[C@H](O)[C@H]2O)nn1.[68Ga+3] [[^68Ga]Ga-TRAP-Galactan] : Biodistribution Stomach value = 1.00

* * *

- procedure_text: Partition coefficient (log D), n-Octanol/PBS
- Assay type: physicochemical
quantity_kind: logD
Format: numeric value only, no unit, no commentary.

Consider the reported logD for these compounds:
O=C(CCP(=O)([O-])CN1CCN(CP(=O)([O-])CCC(=O)NCc2cn(CCOCCOCCO[C@@H]3O[C@H](CO)[C@H](O)[C@H](O)[C@H]3O)nn2)CCN(CP(=O)([O-])CCC(=O)NCc2cn(CCOCCOCCO[C@@H]3O[C@H](CO)[C@H](O)[C@H](O)[C@H]3O)nn2)CC1)NCc1cn(CCOCCOCCO[C@@H]2O[C@H](CO)[C@H](O)[C@H](O)[C@H]2O)nn1.[68Ga+3] [[^68Ga]Ga-TRAP-Galactan] :: −4.26
CC(=O)N[C@H]1[C@H](OCCOCCOCCn2cc(CNC(=O)CCP(=O)([O-])CN3CCN(CP(=O)([O-])CCC(=O)NCc4cn(CCOCCOCCO[C@@H]5O[C@H](CO)[C@H](O)[C@H](O)[C@H]5NC(C)=O)nn4)CCN(CP(=O)([O-])CCC(=O)NCc4cn(CCOCCOCCO[C@@H]5O[C@H](CO)[C@H](O)[C@H](O)[C@H]5NC(C)=O)nn4)CC3)nn2)O[C@H](CO)[C@H](O)[C@@H]1O.[68Ga+3] [[^68Ga]Ga-TRAP-GalNAc] :: −4.2
O=C(CCP(=O)([O-])CN1CCN(CP(=O)([O-])CCC(=O)NCc2cn([C@@H]3O[C@H](CO)[C@H](O)[C@H](O)[C@H]3O)nn2)CCN(CP(=O)([O-])CCC(=O)NCc2cn([C@@H]3O[C@H](CO)[C@H](O)[C@H](O)[C@H]3O)nn2)CC1)NCc1cn([C@@H]2O[C@H](CO)[C@H](O)[C@H](O)[C@H]2O)nn1.[68Ga+3] [[^68Ga]Ga-Galacto-TRAP] :: −4.16

// below: logD requested for another compound
// O=C(CCP(=O)([O-])CN1CCN(CP(=O)([O-])CCC(=O)NCc2cn(CCOCCOCCO[C@@H]3O[C@H](CO)[C@@H](O)[C@H](O)[C@H]3O)nn2)CCN(CP(=O)([O-])CCC(=O)NCc2cn(CCOCCOCCO[C@@H]3O[C@H](CO)[C@@H](O)[C@H](O)[C@H]3O)nn2)CC1)NCc1cn(CCOCCOCCO[C@@H]2O[C@H](CO)[C@@H](O)[C@H](O)[C@H]2O)nn1.[68Ga+3] [[^68Ga]Ga-TRAP-Gluco, reference compound] : logD value = −3.8
